This collection of values is drawn from patent US20240010684A1.

# testedSystem: T1, recombinant human MASP1 (amino acids 297-699, C-terminal His Tag) (human, UniProt P48740 297-699)
# T1 sequence: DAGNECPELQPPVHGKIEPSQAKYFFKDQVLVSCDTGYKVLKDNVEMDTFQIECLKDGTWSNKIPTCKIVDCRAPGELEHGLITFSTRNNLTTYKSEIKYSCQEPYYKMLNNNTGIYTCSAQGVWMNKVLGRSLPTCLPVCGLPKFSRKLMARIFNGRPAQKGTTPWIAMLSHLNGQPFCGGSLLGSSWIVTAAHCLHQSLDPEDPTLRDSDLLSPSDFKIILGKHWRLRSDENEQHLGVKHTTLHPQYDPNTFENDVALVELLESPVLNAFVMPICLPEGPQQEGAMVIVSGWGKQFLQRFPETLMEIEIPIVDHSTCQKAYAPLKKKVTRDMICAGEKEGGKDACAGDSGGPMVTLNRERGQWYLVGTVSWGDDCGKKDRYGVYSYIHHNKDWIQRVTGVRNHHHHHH
# method: cell-based or functional assay
Bridges are numbered along the chain shown (N, C = ends). Where no end group is shown, it is not given here. [ ]: non-standard residue; d: D form. Oic = O=C(O)[C@@H]1C[C@@H]2CCCC[C@@H]2N1; tBuAla = CC(C)(C)C[C@H](N)C(=O)O; Pen = CC(C)(S)[C@H](N)C(=O)O; Dab = NCC[C@H](N)C(=O)O; Dap = NC[C@H](N)C(=O)O; Ahx = NCCCCCC(=O)O; Sar = CNCC(=O)O
recordedEndpoint: human MASP1 IC50 (nM)

- binder: "GAICSRSLPPICIPD-NH2 (disulfide 4-12; lactam N-15; also: TFA salt) [Example 37: G**AIC+SRSLPPIC+IPD++-NH2]"
  units: "nM"
  numericReadout: 16
- binder: "cyclo([Ahx]GICSRSLPPICIPD) (disulfide 4-12; also: HCl salt) [Example 94: (Ahx)**-GIC+SRSLPPIC+IPD** (HCl Salt)]"
  units: "nM"
  numericReadout: 120
- binder: "cyclo(AGGICSRS[tBuAla]PPI[Pen]IP[dD]) (disulfide 5-13; also: TFA salt) [Example 39: A**GGIC+SRS-((tBu)A)-PPI-(Pen)+-IPd**]"
  units: "nM"
  numericReadout: 6

P = [Ahx]GICSRS[tBuAla]PPI[Pen]IPD-NH2 (disulfide 4-12; lactam N-15; also: TFA salt) [Example 48: (Ahx)**-GIC+SRS-((tBu)A)-PPI-(Pen)+-IPD++-NH2]
Q = EGICSRSLP[Oic]I[Pen]IPD[Dap]-NH2 (lactam 1-16; disulfide 4-12; also: TFA salt) [Example 93: E++GIC+SRSLP-(Oic)-I-(Pen)+-IPD-(Dap)++-NH2]
R = AGAICSRSLP[Oic]I[Pen]IPD-NH2 (disulfide 5-13; lactam N-16; also: TFA salt) [Example 41: A**GAIC+SRSLP-(Oic)-I-(Pen)+-IPD++-NH2]
Query: # ascending order, key=human MASP1 IC50 Output spec: labels arranged per the requested ranking.
Result: R, P, Q

A = cyclo([Ahx][Sar]ICSRS[tBuAla]PPI[Pen]I) (disulfide 4-12; also: TFA salt) [Example 64: (Ahx)**-((N-Me)G)-IC+SRS-((tBu)A)-PPI-(Pen)+-I**]
B = cyclo(GGICSRSLPPICIPD) (disulfide 4-12; also: TFA salt) [Example 15: G**GIC+SRSLPPIC+IPD**]
Query: Endpoint returns the identifier whose human MASP1 IC50 is numerically larger, either A or B . Give the chosen item's label as your response.
Result: B
(B: 120 nM, A: 9.4 nM)

A = cyclo([Dap]ICSRSLP[Oic]I[Pen]IP) (disulfide 3-11; also: TFA salt) [Example 87: (Dap)**-IC+SRSLP-(Oic)-I-(Pen)+-IP**]
B = cyclo([Dab]ICSRS[tBuAla]PPI[Pen]IP) (disulfide 3-11; also: TFA salt) [Example 56: (Dab)**-IC+SRS-((tBu)A)-PPI-(Pen)+-IP**]
Query: Endpoint returns the identifier whose human MASP1 IC50 is numerically larger, either A or B . Give the chosen item's label as your response.
Result: B
(B: 86 nM, A: 46 nM)
